target: RXRγ (UniProt P28705); assay: ligand binding assay; details: read-out: RXR Bind Ki (nM) Y
Form field: Ki (one value per entry).
PROPERTY_MEASURED: Ki (nM)

CCN(c1ccc(C(=O)O)cc1)c1cc2c(cc1OCc1ccccc1)C(C)(C)CC=C2C(C)C [Compound 154]
41
CCN(c1ccc2c(c1)C(C)=CCC2(C)C)c1ccc(C(=O)O)cn1 [Compound 170]
61
CCCN(c1ccc(C(=O)O)cc1)c1cc2c(cc1OCc1ccccc1)C(C)(C)CC=C2C(C)C [Compound 157]
99
CCCCOc1cc2c(cc1N(CC)c1ccc(C(=O)O)cc1)C(C(C)C)=CCC2(C)C [Compound 152]
437
CCN(c1ccc(C(=O)O)cc1)c1cc2c(cc1C)C(C(C)(C)C)=CCC2(C)C [Compound 60]
101
CCN(c1ccc(C(=O)O)cc1)c1ccc2c(c1)C(C(C)(C)C)=CCC2(C)C [Compound 88]
21
CC1=CCC(C)(C)c2cc(N(C)c3ccc(C(=O)O)cc3)ccc21 [Compound 67]
1300
CCCN(c1ccc(C(=O)O)cc1)c1ccc2c(c1)C(C(C)(C)C)=CCC2(C)C [Compound 89]
8
